system: Salmonella typhimurium; assay: Antibacterial activity against Salmonella enterica subsp. enterica serovar Typhimurium ATCC 13311 assessed as growth inhibition at 10 to 100 ug/uL after 18 hr by disk diffusion method; assay type: functional
READOUT LABEL: inhibition zone (IZ) (mm)
Report as a plain number; the unit mm is understood.

Worked cases, inhibition zone (IZ) given:
| MOLECULE | inhibition zone (IZ), mm |
| --- | --- |
| CC(=O)O[C@H]1CC[C@@]2(C)C(C1)/C(=N/N=C1\SCC(=O)N1C1CCCCC1)C[C@H]1[C@@H]3CC[C@H]([C@H](C)CCCC(C)C)[C@@]3(C)CC[C@@H]12 (stereo partly drawn) | 19.2 |
| CC(C)CCC[C@@H](C)[C@H]1CC[C@H]2[C@@H]3C/C(=N\N=C4/SCC(=O)N4C4CCCCC4)C4C[C@@H](Cl)CC[C@]4(C)[C@H]3CC[C@]12C (stereo partly drawn) | 19.6 |

*Q* Identify the measured inhibition zone (IZ) of CC(=O)O[C@H]1CC[C@@]2(C)C(C1)/C(=N/NC(=S)NC1CCCCC1)C[C@H]1[C@@H]3CC[C@H]([C@H](C)CCCC(C)C)[C@@]3(C)CC[C@@H]12 (stereo partly drawn) for Salmonella typhimurium.
*A* 10.6
